Molecular target: BaF3-Del_TM_CS cells (Homo sapiens, UniProt P00533, T790M/C797S, cells depend on it, form not given)
Sequence (P00533 with tags, fused parts or gaps DEL746-750/T790M/C797S, form open): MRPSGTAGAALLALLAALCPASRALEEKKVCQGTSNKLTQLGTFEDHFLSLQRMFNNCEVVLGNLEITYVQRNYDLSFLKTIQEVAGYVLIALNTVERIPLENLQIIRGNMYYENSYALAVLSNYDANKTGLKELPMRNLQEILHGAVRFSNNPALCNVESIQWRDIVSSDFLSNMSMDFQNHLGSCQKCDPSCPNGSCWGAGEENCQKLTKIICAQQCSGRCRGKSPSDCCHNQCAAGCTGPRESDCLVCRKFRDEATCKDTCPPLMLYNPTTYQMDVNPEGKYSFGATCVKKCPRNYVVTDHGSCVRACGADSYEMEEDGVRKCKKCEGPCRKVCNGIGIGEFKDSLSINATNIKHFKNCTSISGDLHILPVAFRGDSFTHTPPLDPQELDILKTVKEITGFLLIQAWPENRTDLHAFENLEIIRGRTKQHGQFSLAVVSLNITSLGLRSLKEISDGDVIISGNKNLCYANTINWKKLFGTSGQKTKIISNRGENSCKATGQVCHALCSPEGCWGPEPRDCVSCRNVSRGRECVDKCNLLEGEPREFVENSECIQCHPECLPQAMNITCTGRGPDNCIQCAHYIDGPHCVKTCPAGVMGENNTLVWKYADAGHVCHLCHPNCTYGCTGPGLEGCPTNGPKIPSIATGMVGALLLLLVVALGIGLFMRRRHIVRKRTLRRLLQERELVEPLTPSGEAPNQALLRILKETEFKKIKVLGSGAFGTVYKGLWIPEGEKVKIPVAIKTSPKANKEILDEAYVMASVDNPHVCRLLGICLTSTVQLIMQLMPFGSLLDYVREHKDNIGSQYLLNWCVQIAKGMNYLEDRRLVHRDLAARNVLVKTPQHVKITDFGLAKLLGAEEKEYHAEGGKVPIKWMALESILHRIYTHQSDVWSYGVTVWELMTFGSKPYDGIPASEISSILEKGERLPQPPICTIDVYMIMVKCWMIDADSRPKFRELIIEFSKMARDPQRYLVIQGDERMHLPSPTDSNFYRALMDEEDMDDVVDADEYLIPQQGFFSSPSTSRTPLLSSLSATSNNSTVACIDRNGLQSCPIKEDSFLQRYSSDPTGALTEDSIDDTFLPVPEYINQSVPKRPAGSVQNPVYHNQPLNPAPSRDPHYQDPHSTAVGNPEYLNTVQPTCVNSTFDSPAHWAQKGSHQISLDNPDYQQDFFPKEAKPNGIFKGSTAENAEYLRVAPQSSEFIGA
Experiment: Cell antiproliferation assay (CellTiter-Glo), BaF3-Del_TM_CS
Type: cell-based
Conditions: 48 h treatment, read-out: BaF3-Del_TM_CS IC50
Note to self: GI50 under 50 nM means yes (1), ties and anything higher get no (0).

A record lists CN(C)C1CCN(c2ccc(Nc3ncc(Br)c(Nc4cccc5c4N(S(C)(=O)=O)CC5)n3)c3c2OCO3)CC1 . Is its GI50 below 50 nM?
yes (1)

What about COc1cc(N2CCC(N3CCN(C)CC3)CC2)ccc1Nc1ncc(C#N)c(Nc2cccc3c2N(S(C)(=O)=O)CC3)n1 ?
no (0)

And what about the compound COc1cc(N2CCC(N3CCN(C)CC3)CC2)ccc1Nc1ncc(Cl)c(Nc2ccc(F)c3c2N(S(C)(=O)=O)CC3)n1 ?
yes (1)

Next:
Dear reviewer, please state whether COc1cc(N2CCC(N3CCN(C)CC3)CC2)ccc1Nc1ncc(Cl)c(Nc2cccc3c2N(C(=O)N(C)C)CC3)n1 has GI50 strictly beneath 50 nM.
no (0)

For COc1cc(N2CCC(N3CCN(C)CC3)CC2)ccc1Nc1nc2c(c(Nc3cccc4c3N(S(C)(=O)=O)CC4)n1)CCC2 then?
no (0)

----------
Biological target: EGFR(Dell9_T790M_C797S) (aa 669-1210, in house) (Homo sapiens, UniProt P00533, T790M/C797S, form not given)
Sequence (P00533 with tags, fused parts or gaps DEL746-750/T790M/C797S, form open): as above
Assay: Biochemical EGFR inhibition assay (TR-FRET), Del19/T790M/C797S mutant
Details: ATP at Km, 15 min pre-incubation, 60 min reaction; read-out: Del_TM_CS (Km ATP) IC50
Could you please report measured IC50 for the items listed next?
One number for each entry, in nM.

Consider the worked cases shown below.
Entry under review: COc1cc(N2CC3(CN(C)C3)C2)c(F)cc1Nc1nc(Nc2cccc3c2N(S(C)(=O)=O)CC3)c2cc[nH]c2n1 [Example 97] . Reported IC50?
4.3

Entry CN1CCN(C2CCN(c3ccc(Nc4nc(Nc5cccc6c5N(S(C)(=O)=O)CC6)c5cc[nH]c5n4)cc3F)CC2)CC1 [Example 79] please
0.29

Moving on to CN1CCN(C2CCN(c3ccc(Nc4nc(Nc5cccc6c5N(S(C)(=O)=O)CC6)c5cc[nH]c5n4)cn3)CC2)CC1 [Example 184]
2.5

For every listed record, write down its IC50.
1. COc1cc(N2CCC(N3CCN(C)CC3)CC2)ccc1Nc1nc(Nc2cccc3c2N(S(C)(=O)=O)CC3)c2c(Cl)c[nH]c2n1 [Example 73]
2. COc1cc(N2C[C@@H]3C[C@H]2CN3C)ccc1Nc1nc(Nc2cccc3c2N(S(C)(=O)=O)CC3)c2cc[nH]c2n1 [Example 110]

1. 1.6
2. 10.7

Batch of 5 compounds: report IC50 for each.
1. CN1CCN(C2CCN(c3ccc(Nc4nc(Nc5cccc6c5N(S(C)(=O)=O)CC6)c5cc[nH]c5n4)c4c3CCO4)CC2)CC1 [Example 125]
2. COc1cc(N2CCC(N3CCN(C)CC3)CC2)ncc1Nc1nc(Nc2cccc3c2N(S(C)(=O)=O)CC3)c2cc[nH]c2n1 [Example 190]
3. COc1cc(N2CCC(N3CCN(C)CC3)CC2)c(C)cc1Nc1ncc(Cl)c(Nc2cccc3c2N(S(C)(=O)=O)CC32CC2)n1 [Example 188]
4. CC1Cc2c(N3CCC(N4CCN(C)CC4)CC3)ccc(Nc3ncc(Br)c(Nc4cccc5c4N(S(C)(=O)=O)CC5)n3)c2O1 (stereo not shown) [Example 61]
5. Cc1cc(Nc2nc(Nc3cccc4c3N(S(C)(=O)=O)CC4)c3cc[nH]c3n2)ccc1N1CCC(N2CCN(C)CC2)CC1 [Example 82]

1.6
5.6
0.7
1.58
0.85

Give IC50 for all compounds that follow.
1. COc1cc(N2CCC(N3CCN(C)C4(CC4)C3)CC2)ccc1Nc1nc(Nc2cccc3c2N(S(C)(=O)=O)CC3)c2cc[nH]c2n1 [Example 189]
2. CN(C)C1CCN(c2ccc(Nc3nc(Nc4cccc5c4N(S(C)(=O)=O)CC5)c4cc[nH]c4n3)c3c2CCO3)CC1 [Example 124]
3. COc1cc(N2CCN(C)[C@@H](C)C2)c(C)cc1Nc1ncc(Br)c(Nc2cccc3c2N(S(C)(=O)=O)CC3)n1 [Example 43]

1.2
1
0.5
